B1: WDR88 (parent)
chain: LLTITKAHSNAISNCCFTFSGHFL

Variants of: B1
Method Description: protein stability index of a GFP-peptide fusion (GPS, HEK-293T) (PSI 1-6); higher = more stable;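 note: lentivirally expressed fusions sorted by FACS into six bins by GFP to DsRed ratio, PSI derived from sequencing read proportions per bin multiplied by bin number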
Run Parameters: c terminus: a fixed tail appended
Overview of recorded protein stability index for various variants
Quantity Kind: protein stability index

Chain: LLTITKAHSNAISNCCFTFSGHFD [L24D]
Quantity Kind: protein stability index
Value: 1.92

Chain: LLTIKKAHSNAISNCCFTFSGHFL [T5K]
Quantity Kind: protein stability index
Value: 2.37

Chain: LLTITKATSNAISNCCFTFSGHFL [H8T]
Quantity Kind: protein stability index
Value: 2.38

Chain: LLTITKAHSNAISNCCFTFSGPFL [H22P]
Quantity Kind: protein stability index
Value: 2.51

Chain: LLTITKAHSNAISNCCFWFSGHFL [T18W]
Quantity Kind: protein stability index
Value: 2.86

Chain: LLEITKAHSNAISNCCFTFSGHFL [T3E]
Quantity Kind: protein stability index
Value: 2.47

Chain: YLTITKAHSNAISNCCFTFSGHFL [L1Y]
Quantity Kind: protein stability index
Value: 4.04

Chain: LLTITKAHCNAISNCCFTFSGHFL [S9C]
Quantity Kind: protein stability index
Value: 1.89

Chain: LLTITVAHSNAISNCCFTFSGHFL [K6V]
Quantity Kind: protein stability index
Value: 2.84

Chain: LLTITKAHSNAISFCCFTFSGHFL [N14F]
Quantity Kind: protein stability index
Value: 3.06

Chain: LLTITRAHSNAISNCCFTFSGHFL [K6R]
Quantity Kind: protein stability index
Value: 2.72

Chain: LLTITKAHSNAISNFCFTFSGHFL [C15F]
Quantity Kind: protein stability index
Value: 3.46

Chain: LLTITKAHSNAISNCCFTFSGTFL [H22T]
Quantity Kind: protein stability index
Value: 2.83

Chain: LLTITKAHSNAISNCCFTFSGHHL [F23H]
Quantity Kind: protein stability index
Value: 2.91

Chain: LLTITKAHSNAIWNCCFTFSGHFL [S13W]
Quantity Kind: protein stability index
Value: 3.57

Chain: LLHITKAHSNAISNCCFTFSGHFL [T3H]
Quantity Kind: protein stability index
Value: 2.57

Chain: LLTIIKAHSNAISNCCFTFSGHFL [T5I]
Quantity Kind: protein stability index
Value: 2.02

Chain: LLTITKAHSNAISKCCFTFSGHFL [N14K]
Quantity Kind: protein stability index
Value: 2.63

Chain: LLTITKAHSNAISNCPFTFSGHFL [C16P]
Quantity Kind: protein stability index
Value: 2.25

Chain: LLTITKASSNAISNCCFTFSGHFL [H8S]
Quantity Kind: protein stability index
Value: 2.6

Chain: LLTITKAHSNAISNWCFTFSGHFL [C15W]
Quantity Kind: protein stability index
Value: 2.31

Chain: LLTITKAHKNAISNCCFTFSGHFL [S9K]
Quantity Kind: protein stability index
Value: 2.83

Chain: LLTITKAHSNAISNCCFTFSGDFL [H22D]
Quantity Kind: protein stability index
Value: 2.31

Chain: LLTITKAHSNAISNCCFTFPGHFL [S20P]
Quantity Kind: protein stability index
Value: 2.34

Chain: LLTITKAHSNAISNCQFTFSGHFL [C16Q]
Quantity Kind: protein stability index
Value: 2.41

Chain: LLTVTKAHSNAISNCCFTFSGHFL [I4V]
Quantity Kind: protein stability index
Value: 3.9

Chain: LLTITKAHSNACSNCCFTFSGHFL [I12C]
Quantity Kind: protein stability index
Value: 3.49

Chain: ILTITKAHSNAISNCCFTFSGHFL [L1I]
Quantity Kind: protein stability index
Value: 4.01

Chain: LLTITKAHSNAISNCCATFSGHFL [F17A]
Quantity Kind: protein stability index
Value: 2.38

Chain: LLTITKAHSNCISNCCFTFSGHFL [A11C]
Quantity Kind: protein stability index
Value: 1.97

Chain: LLTITKAHSNAIVNCCFTFSGHFL [S13V]
Quantity Kind: protein stability index
Value: 2.2

Chain: LLTITTAHSNAISNCCFTFSGHFL [K6T]
Quantity Kind: protein stability index
Value: 2.78

Chain: LLTITKAHSNALSNCCFTFSGHFL [I12L]
Quantity Kind: protein stability index
Value: 3.56

Chain: LLTITKAHSNAISYCCFTFSGHFL [N14Y]
Quantity Kind: protein stability index
Value: 2.53

Chain: VLTITKAHSNAISNCCFTFSGHFL [L1V]
Quantity Kind: protein stability index
Value: 2.93

Chain: LLTITKAHDNAISNCCFTFSGHFL [S9D]
Quantity Kind: protein stability index
Value: 3.12

Chain: LLTITKAHSNAISNCTFTFSGHFL [C16T]
Quantity Kind: protein stability index
Value: 2.9

Chain: LLTITKAHSNAIYNCCFTFSGHFL [S13Y]
Quantity Kind: protein stability index
Value: 2.48

Chain: LLTITKAHSNAISNCCDTFSGHFL [F17D]
Quantity Kind: protein stability index
Value: 1.92

Chain: LLTITKAHSNAISNCCFTFTGHFL [S20T]
Quantity Kind: protein stability index
Value: 2.67

Chain: LLTITKALSNAISNCCFTFSGHFL [H8L]
Quantity Kind: protein stability index
Value: 3.6

Chain: LLTITKWHSNAISNCCFTFSGHFL [A7W]
Quantity Kind: protein stability index
Value: 4.07

Chain: LLTITKAHSNAISNCCFTFSGHGL [F23G]
Quantity Kind: protein stability index
Value: 2.05

Chain: LLTITKAHSNMISNCCFTFSGHFL [A11M]
Quantity Kind: protein stability index
Value: 2.82

Chain: LLTITKMHSNAISNCCFTFSGHFL [A7M]
Quantity Kind: protein stability index
Value: 2.8

Chain: LLTITKAHSNAIHNCCFTFSGHFL [S13H]
Quantity Kind: protein stability index
Value: 3.44

Chain: LLTITKAHSNAISNCCFTMSGHFL [F19M]
Quantity Kind: protein stability index
Value: 1.69

Chain: LLTITKAHSNAISNCCFTFSGVFL [H22V]
Quantity Kind: protein stability index
Value: 2.67

Chain: LLWITKAHSNAISNCCFTFSGHFL [T3W]
Quantity Kind: protein stability index
Value: 2.29

Chain: LLTITKAHSNANSNCCFTFSGHFL [I12N]
Quantity Kind: protein stability index
Value: 2.49

Chain: LLTITKAHSNAISNCDFTFSGHFL [C16D]
Quantity Kind: protein stability index
Value: 2.33

Chain: LLTITKAHSNAISNCCFTFSGHFY [L24Y]
Quantity Kind: protein stability index
Value: 3.97

Chain: LLTITKAHSNAISNCCSTFSGHFL [F17S]
Quantity Kind: protein stability index
Value: 1.37

Chain: LLPITKAHSNAISNCCFTFSGHFL [T3P]
Quantity Kind: protein stability index
Value: 2.97

Chain: LLTITMAHSNAISNCCFTFSGHFL [K6M]
Quantity Kind: protein stability index
Value: 2.66

Chain: LLTITKAHSNAISNCCFTFSGHFA [L24A]
Quantity Kind: protein stability index
Value: 2.74

Chain: LLTATKAHSNAISNCCFTFSGHFL [I4A]
Quantity Kind: protein stability index
Value: 2.47

Chain: LLTITKAHSNAYSNCCFTFSGHFL [I12Y]
Quantity Kind: protein stability index
Value: 2.33

Chain: LATITKAHSNAISNCCFTFSGHFL [L2A]
Quantity Kind: protein stability index
Value: 3.15

Chain: LLTITKAHHNAISNCCFTFSGHFL [S9H]
Quantity Kind: protein stability index
Value: 2.45
